Please go through the items and note down their IC50 neutralization, 18 hour virus/Ab incubation.
- Subject of test: aMLV Env (aMLV)
- Protocol summary: cell-based or functional assay

These recorded examples may help you get a feel for the data.
Binder | Result
1495_C14 (PGC14) (antibody, human IgG1, lambda, V domains shown) VH: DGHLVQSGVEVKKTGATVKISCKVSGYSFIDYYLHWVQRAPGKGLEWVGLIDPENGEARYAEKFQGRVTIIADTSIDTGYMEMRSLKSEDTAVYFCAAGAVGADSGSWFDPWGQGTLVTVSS VL: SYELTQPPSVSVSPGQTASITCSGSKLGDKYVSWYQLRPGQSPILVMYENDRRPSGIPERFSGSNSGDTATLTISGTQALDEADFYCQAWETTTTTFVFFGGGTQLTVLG | > 50 µg/mL
1456_P20 (PG20) (antibody, human IgG1, kappa, V domains shown) VH: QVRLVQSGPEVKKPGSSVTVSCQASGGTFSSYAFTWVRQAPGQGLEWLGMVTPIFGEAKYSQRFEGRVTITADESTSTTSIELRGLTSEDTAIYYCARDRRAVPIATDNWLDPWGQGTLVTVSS VL: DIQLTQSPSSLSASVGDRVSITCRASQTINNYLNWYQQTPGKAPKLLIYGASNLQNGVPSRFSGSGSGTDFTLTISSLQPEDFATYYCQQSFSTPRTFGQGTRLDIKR | > 50 µg/mL
1460_G14 (PGG14) (antibody, human IgG1, kappa, V domains shown) VH: QVLLVQSGTEVKKPGSSVKVSCQASGGAFSSYAFSWVRQAPGQGLEWMGMITPVFGETKYAPRFQGRLTLTAEESLSTTYMELRSLTSDDTAFYYCTRDRRVVPMATDNWLDPWGQGTLVTVSS VL: DIQLTQSPSSLSASVGDRVTVTCRASQTIHTYLNWYQQIPGKAPKLLIYGASTLQSGVPSRFSGSGSGTDFTLTINSLQPEDFATYYCQQSYSTPRTFGQGTRLDIKR | > 50 µg/mL
1496_C09 (PG9) (TCN-109) (antibody, V domains shown) VH: QRLVESGGGVVQPGSSLRLSCAASGFDFSRQGMHWVRQAPGQGLEWVAFIKYDGSEKYHADSVWGRLSISRDNSKDTLYLQMNSLRVEDTATYFCVREAGGPDYRNGYNYYDFYDGYYNYHYMDVWGKGTTVTVSS VL: QSALTQPASVSGSPGQSITISCNGTSNDVGGYESVSWYQQHPGKAPKVVIYDVSKRPSGVSNRFSGSKSGNTASLTISGLQAEDEGDYYCKSLTSTRRRVFGTGTKLTVLG | > 50 µg/mL

Task: State, in one line, measured IC50 neutralization, 18 hour virus/Ab incubation of 1443_C16 (PG16) (TCN-116) (antibody, V domains shown) VH: QEQLVESGGGVVQPGGSLRLSCLASGFTFHKYGMHWVRQAPGKGLEWVALISDDGMRKYHSDSMWGRVTISRDNSKNTLYLQFSSLKVEDTAMFFCAREAGGPIWHDDVKYYDFNDGYYNYHYMDVWGKGTTVTVSS VL: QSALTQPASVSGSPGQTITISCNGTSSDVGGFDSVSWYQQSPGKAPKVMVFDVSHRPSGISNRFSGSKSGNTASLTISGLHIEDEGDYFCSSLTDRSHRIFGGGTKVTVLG
Result: > 50 µg/mL

Data origin, for the record: patent US20160264649A1
